Value source: patent EP4786489A1

Target: T1, heterodimeric receptor complex (IL-22Rα/IL-10Rβ) (human, UniProt Q8N6P7 16-574; Q08334 20-325)
T1 sequence (looked up) 1: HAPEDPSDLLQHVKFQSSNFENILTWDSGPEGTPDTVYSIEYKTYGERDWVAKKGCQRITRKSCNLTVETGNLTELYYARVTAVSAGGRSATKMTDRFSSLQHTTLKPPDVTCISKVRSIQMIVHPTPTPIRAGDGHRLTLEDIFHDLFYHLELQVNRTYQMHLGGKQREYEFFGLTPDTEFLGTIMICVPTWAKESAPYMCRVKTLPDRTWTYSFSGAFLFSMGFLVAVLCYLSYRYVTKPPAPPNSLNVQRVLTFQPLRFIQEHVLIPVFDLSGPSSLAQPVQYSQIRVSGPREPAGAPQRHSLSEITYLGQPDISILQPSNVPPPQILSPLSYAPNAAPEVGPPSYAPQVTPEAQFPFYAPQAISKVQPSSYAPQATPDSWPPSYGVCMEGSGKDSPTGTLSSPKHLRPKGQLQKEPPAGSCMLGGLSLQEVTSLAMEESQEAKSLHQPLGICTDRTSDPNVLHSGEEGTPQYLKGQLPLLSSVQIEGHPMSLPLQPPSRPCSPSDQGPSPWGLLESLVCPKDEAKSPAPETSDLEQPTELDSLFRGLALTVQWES
T1 sequence (looked up) 2: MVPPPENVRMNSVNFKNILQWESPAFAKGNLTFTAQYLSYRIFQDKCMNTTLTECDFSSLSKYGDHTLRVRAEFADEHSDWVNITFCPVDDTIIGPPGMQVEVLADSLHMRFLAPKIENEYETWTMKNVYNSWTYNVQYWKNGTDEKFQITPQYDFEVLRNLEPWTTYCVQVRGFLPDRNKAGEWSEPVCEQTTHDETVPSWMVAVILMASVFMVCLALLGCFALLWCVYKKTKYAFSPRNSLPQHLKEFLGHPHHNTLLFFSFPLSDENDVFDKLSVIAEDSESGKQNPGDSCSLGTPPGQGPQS
Test: cell-based or functional assay
observable: STAT1 Activation EC50 (nM); pSTAT1 FACS, HT29 cells

| binder | observed_value |
| --- | --- |
| 60K-PEG-IL22-P50C (ligand, Cys at position 17 (SEQ ID NO:1 numbering) conjugated to 60 kDa PEG-maleimide (thioether linkage)) APISSHCRLDKSNFQQCYITNRTFMLAKEASLADNNTDVRLIGEKLFHGVSMSERCYLMKQVLNFTLEEVLFPQSDRFQPYMQEVVPFLARLSNRLSTCHIEGDDLHIQRNVQKLKDTVKKLGESGEIKAIGELDLLFMSLRNACI | 134 |
